Below, each entry is listed alongside its reported IC50.
# TEST_SYSTEM: FLAG tagged human Ang2 (Alexis Biochemicals) (human) (UniProt O15123)
# Sequence (O15123 19-496): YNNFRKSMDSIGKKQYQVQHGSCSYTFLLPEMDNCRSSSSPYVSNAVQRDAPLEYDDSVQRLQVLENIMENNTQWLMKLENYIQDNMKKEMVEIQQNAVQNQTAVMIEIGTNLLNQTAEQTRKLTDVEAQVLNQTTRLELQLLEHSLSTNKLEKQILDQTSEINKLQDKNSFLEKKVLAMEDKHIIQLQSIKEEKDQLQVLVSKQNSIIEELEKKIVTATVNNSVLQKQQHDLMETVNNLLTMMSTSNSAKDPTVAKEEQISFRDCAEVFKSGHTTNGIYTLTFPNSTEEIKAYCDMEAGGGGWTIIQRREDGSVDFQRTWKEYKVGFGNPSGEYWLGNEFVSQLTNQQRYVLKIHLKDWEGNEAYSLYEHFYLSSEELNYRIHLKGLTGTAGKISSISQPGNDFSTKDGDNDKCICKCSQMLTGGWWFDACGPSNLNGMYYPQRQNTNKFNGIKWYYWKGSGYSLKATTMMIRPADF
# TEST_NAME: competition ELISA, FLAG-hAng2 (0.02 nM) on coated hTie2/Fc
Express the result in nM but write the number alone.

Solved entries (count: 3):
>  <BINDER>
VHH 11B07 (VHH, not shown: small tags and cut ends) VHH: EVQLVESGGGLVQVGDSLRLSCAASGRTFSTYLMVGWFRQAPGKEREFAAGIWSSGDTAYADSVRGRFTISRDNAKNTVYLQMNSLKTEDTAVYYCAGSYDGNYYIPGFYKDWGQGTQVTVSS

>  <RESULT_UNIT>
nM

>  <IC50>
14

$$$$
>  <BINDER>
VHH 37F02 (VHH, not shown: small tags and cut ends) VHH: EVQLVESGGGLVQPGGSLRLSCAASGFALDYYAIGWFRQAPGKEREGVSCISSSDGITYYVDSVKGRFTISRDNAKNTVYLQMNSLKPEDTAVYYCATDSGGYIDYDCMGLGYDYWGQGTQVTVSS

>  <RESULT_UNIT>
nM

>  <IC50>
0.08

$$$$
>  <BINDER>
VHH 1D01 (VHH, not shown: small tags and cut ends) VHH: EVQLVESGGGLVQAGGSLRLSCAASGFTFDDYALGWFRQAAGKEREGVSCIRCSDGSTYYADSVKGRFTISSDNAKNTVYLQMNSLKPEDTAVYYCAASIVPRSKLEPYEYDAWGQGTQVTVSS

>  <RESULT_UNIT>
nM

>  <IC50>
6.2

$$$$

We now examine a further binder.
Input: Which IC50 value is on record for VHH 28D10 (VHH, not shown: small tags and cut ends) VHH: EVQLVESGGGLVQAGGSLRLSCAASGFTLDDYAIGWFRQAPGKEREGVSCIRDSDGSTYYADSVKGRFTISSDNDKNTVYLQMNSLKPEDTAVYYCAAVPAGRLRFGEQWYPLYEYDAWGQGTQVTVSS ?
Output: 1.3
